assay: Absorption characteristics: transmission spectrum of near-infrared absorbing layer of NIR filter (UV-visible spectrophotometer); assay type: physicochemical; settings: transparent resin polycarbonate EP5000, nd(B) 1.63, film thickness 2.4 μm
endpoint-label: λa (nm)
Give bare numbers, in nm.

Use the examples below as a reference point.
CCCCCCCC(=O)Nc1cc2c(cc1C1=C([O-])C(=c3cc4c(cc3NC(=O)CCCCCCC)=[N+](C)C(C)C4(C)C)C1=O)C(C)(C)C(C)N2C (stereo not drawn) [Example A11-24, reference compound]
694
CCCC(CCC)C(=O)Nc1cc2c(cc1C1=C([O-])C(=c3cc4c(cc3NC(=O)C(CCC)CCC)=[N+](C)C(C)C4(C)C)C1=O)C(C)(C)C(C)N2C (stereo not drawn)
694
CC(CCC(C(=O)Nc1cc2c(cc1C1=C([O-])C(=c3cc4c(cc3NC(=O)C(CCC(C)CC(C)(C)C)C(C)CC(C)(C)C)=[N+](C)C(C)C4(C)C)C1=O)C(C)(C)C(C)N2C)C(C)CC(C)(C)C)CC(C)(C)C (stereo not drawn)
693
CCCCC(CC)C(=O)Nc1cc2c(cc1C1=C([O-])C(=c3cc4c(cc3NC(=O)C(CC)CCCC)=[N+](C)C(C)C4(C)C)C1=O)C(C)(C)C(C)N2C (stereo not drawn)
694
CCCCCCCCCCCC(=O)Nc1cc2c(cc1C1=C([O-])C(=c3cc4c(cc3NC(=O)CCCCCCCCCCC)=[N+](C)C(C)C4(C)C)C1=O)C(C)(C)C(C)N2C (stereo not drawn) [Example A11-25, reference compound]
693

// batch mode: one λa value per listed entry
1. CC(=O)Nc1cc2c(cc1C1=C([O-])C(=c3cc4c(cc3NC(C)=O)=[N+](C)C(C)C4(C)C)C1=O)C(C)(C)C(C)N2C (stereo not drawn) [Example A11-20, reference compound]
2. CCCC(C)(C)C(=O)Nc1cc2c(cc1C1=C([O-])C(=c3cc4c(cc3NC(=O)C(C)(C)CCC)=[N+](C)C(C)C4(C)C)C1=O)C(C)(C)C(C)N2C (stereo not drawn)

1: 693; 2: 689

List reported λa for each of these compounds:
1. CCCCC(CC)C(=O)Nc1cc2c(cc1C1=C([O-])C(=c3cc4c(cc3NC(=O)C(CC)CCCC)=[N+](C(C)C)C(C)C4(C)C)C1=O)C(C)(C)C(C)N2C(C)C (stereo not drawn)
2. Cc1ccc(C)c(OCCCC(C)(C)C(=O)Nc2cc3c(cc2C2=C([O-])C(=c4cc5c(cc4NC(=O)C(C)(C)CCCOc4cc(C)ccc4C)=[N+](C)C(C)C5(C)C)C2=O)C(C)(C)C(C)N3C)c1 (stereo not drawn)

1: 700; 2: 689

====

assay: Absorption characteristics: transmission spectrum of near-infrared absorbing layer of NIR filter (UV-visible spectrophotometer); type: physicochemical; details: transparent resin polycarbonate SP3810, nd(B) 1.63, film thickness 1.0 μm
endpoint-label: 430 nm to 600 nm Average transmittance (%)
Give bare numbers, in %.

Provide each entry's 430 nm to 600 nm Average transmittance from the list below.
1. CC(CCC(C(=O)Nc1cc2c(cc1C1=C([O-])C(=c3cc4c(cc3NC(=O)C(CCC(C)CC(C)(C)C)C(C)CC(C)(C)C)=[N+](C)C(C)C4(C)C)C1=O)C(C)(C)C(C)N2C)C(C)CC(C)(C)C)CC(C)(C)C (stereo not drawn) [Example A11-4]
2. CCCCC(CC)C(=O)Nc1cc2c(cc1C1=C([O-])C(=c3cc4c(cc3NC(=O)C(CC)CCCC)=[N+](C)C(C)C4(C)C)C1=O)C(C)(C)C(C)N2C (stereo not drawn) [Example A11-2]
3. CCCCCCCCCCCC(=O)Nc1cc2c(cc1C1=C([O-])C(=c3cc4c(cc3NC(=O)CCCCCCCCCCC)=[N+](C)C(C)C4(C)C)C1=O)C(C)(C)C(C)N2C (stereo not drawn) [Example A11-25, reference compound]
4. Cc1ccc(C)c(OCCCC(C)(C)C(=O)Nc2cc3c(cc2C2=C([O-])C(=c4cc5c(cc4NC(=O)C(C)(C)CCCOc4cc(C)ccc4C)=[N+](C)C(C)C5(C)C)C2=O)C(C)(C)C(C)N3C)c1 (stereo not drawn) [Example A11-13]

[96.8, 96.1, 94.6, 97.3]
